Test system: Melanoma subpanel
Test: NCI-60 screen, subpanel Melanoma
Tick y if Selectivity, ratio MID a: MID b is 0.9 or greater. Tick n if Selectivity, ratio MID a: MID b is less than 0.9.

molecule	answer-label
C=C(C)[C@@H]1CC[C@]2(C(=O)OC)CC[C@]3(C)[C@H](CC[C@@H]4[C@@]5(C)CCC(=NOCCC(=NOCCC#N)NCCC#N)C(C)(C)[C@@H]5CC[C@]43C)[C@@H]12	y
CC(=O)OCC12CCC(C(C)C(N)=O)C1C1CCC3C4(C)CCC(OC(C)=O)C(C)(C)C4CCC3(C)C1(C)CC2 (stereo not drawn)	y
C=C(C)[C@@H]1CC[C@]2(C(=O)NCCCN)CC[C@]3(C)[C@H](CC[C@@H]4[C@@]5(C)CCC(=O)C(C)(C)[C@@H]5CC[C@]43C)[C@@H]12	n
C=C(C)[C@@H]1CC[C@]2(C(=O)NCCNCCNCCN)CC[C@]3(C)[C@H](CC[C@@H]4[C@@]5(C)CCC(=O)C(C)(C)[C@@H]5CC[C@]43C)[C@@H]12	n
C=C(C)[C@@H]1CC[C@]2(C(N)=O)CC[C@]3(C)[C@H](CC[C@@H]4[C@@]5(C)CC[C@H](O)C(C)(C)[C@@H]5CC[C@]43C)[C@@H]12	n

###

Tested on: Colon Cancer subpanel
Experiment: NCI-60 screen, subpanel Colon Cancer
measurement-label: Selectivity, ratio MID a: MID b

compound-string	measurement-label	value-measured
C=C(C)[C@@H]1CC[C@]2(C(=O)NCCCN)CC[C@]3(C)[C@H](CC[C@@H]4[C@@]5(C)CCC(=O)C(C)(C)[C@@H]5CC[C@]43C)[C@@H]12	Selectivity, ratio MID a: MID b	1.15
C=C(C)[C@@H]1CC[C@]2(C(=O)OC)CC[C@]3(C)[C@H](CC[C@@H]4[C@@]5(C)CCC(=NOCCC(=NOCCC#N)NCCC#N)C(C)(C)[C@@H]5CC[C@]43C)[C@@H]12	Selectivity, ratio MID a: MID b	1.38
C=C(C)[C@@H]1CC[C@]2(C(=O)NCCNCCNCCN)CC[C@]3(C)[C@H](CC[C@@H]4[C@@]5(C)CC[C@H](O)C(C)(C)[C@@H]5CC[C@]43C)[C@@H]12	Selectivity, ratio MID a: MID b	1.04

###

Test system: MALME-3M
Assay: NCI-60 SRB screen: melanoma MALME-3M
Format: cell-based, human
Conditions: Homo sapiens; MALME-3M; five concentrations, 48 h, SRB; read-out: GI50
Mark satisfied for GI50 under 10 µM, not satisfied if at or over.

compound	answer-label
CC(=O)OCC12CCC(C(C)C(N)=O)C1C1CCC3C4(C)CCC(OC(C)=O)C(C)(C)C4CCC3(C)C1(C)CC2 (centres unmarked)	not satisfied
C=C(C)[C@@H]1CC[C@]2(C(=O)NCCCN)CC[C@]3(C)[C@H](CC[C@@H]4[C@@]5(C)CCC(=O)C(C)(C)[C@@H]5CC[C@]43C)[C@@H]12	not satisfied
C=C(C)[C@@H]1CC[C@]2(C(=O)OC)CC[C@]3(C)[C@H](CC[C@@H]4[C@@]5(C)CCC(=NOCCC(=NOCCC#N)NCCC#N)C(C)(C)[C@@H]5CC[C@]43C)[C@@H]12	not satisfied
C=C(C)[C@@H]1CC[C@]2(C(=O)NCCNCCNCCN)CC[C@]3(C)[C@H](CC[C@@H]4[C@@]5(C)CCC(=O)C(C)(C)[C@@H]5CC[C@]43C)[C@@H]12	satisfied
C=C(C)[C@@H]1CC[C@]2(C(=O)NCCNCCNCCN)CC[C@]3(C)[C@H](CC[C@@H]4[C@@]5(C)CC[C@H](O)C(C)(C)[C@@H]5CC[C@]43C)[C@@H]12	not satisfied

###

System: NCI-H460
Assay: NCI-60 SRB screen: non-small cell lung cancer NCI-H460
Type: cell-based
Conditions: Homo sapiens; NCI-H460; five concentrations, 48 h, SRB; read-out: GI50
Mark criterion met for GI50 under 10 µM, criterion not met if at or over.

molecule	target-system	answer-label
C=C(C)[C@@H]1CC[C@]2(C(=O)NCCCN)CC[C@]3(C)[C@H](CC[C@@H]4[C@@]5(C)CCC(=O)C(C)(C)[C@@H]5CC[C@]43C)[C@@H]12	NCI-H460	criterion not met
C=C(C)[C@@H]1CC[C@]2(C(=O)OC)CC[C@]3(C)[C@H](CC[C@@H]4[C@@]5(C)CCC(=NOCCC(=NOCCC#N)NCCC#N)C(C)(C)[C@@H]5CC[C@]43C)[C@@H]12	NCI-H460	criterion not met
C=C(C)[C@@H]1CC[C@]2(C(=O)NCCNCCNCCN)CC[C@]3(C)[C@H](CC[C@@H]4[C@@]5(C)CC[C@H](O)C(C)(C)[C@@H]5CC[C@]43C)[C@@H]12	NCI-H460	criterion not met
CC(=O)OCC12CCC(C(C)C(N)=O)C1C1CCC3C4(C)CCC(OC(C)=O)C(C)(C)C4CCC3(C)C1(C)CC2 (centres unmarked)	NCI-H460	criterion not met
C=C(C)[C@@H]1CC[C@]2(C(=O)NCCNCCNCCN)CC[C@]3(C)[C@H](CC[C@@H]4[C@@]5(C)CCC(=O)C(C)(C)[C@@H]5CC[C@]43C)[C@@H]12	NCI-H460	criterion met

###

Test system: SNB-75
Test: NCI-60 SRB screen: CNS cancer SNB-75
Format: cell-based, human
Settings: Homo sapiens; SNB-75; five concentrations, 48 h, SRB; read-out: GI50

compound	unit	GI50
C=C(C)[C@@H]1CC[C@]2(C(=O)NCCNCCNCCN)CC[C@]3(C)[C@H](CC[C@@H]4[C@@]5(C)CC[C@H](O)C(C)(C)[C@@H]5CC[C@]43C)[C@@H]12	µM	11.1
C=C(C)[C@@H]1CC[C@]2(C(=O)NCCNCCNCCN)CC[C@]3(C)[C@H](CC[C@@H]4[C@@]5(C)CCC(=O)C(C)(C)[C@@H]5CC[C@]43C)[C@@H]12	µM	6.26
C=C(C)[C@@H]1CC[C@]2(C(=O)OC)CC[C@]3(C)[C@H](CC[C@@H]4[C@@]5(C)CCC(=NOCCC(=NOCCC#N)NCCC#N)C(C)(C)[C@@H]5CC[C@]43C)[C@@H]12	µM	31.2
CC(=O)OCC12CCC(C(C)C(N)=O)C1C1CCC3C4(C)CCC(OC(C)=O)C(C)(C)C4CCC3(C)C1(C)CC2 (centres unmarked)	µM	5.59
C=C(C)[C@@H]1CC[C@]2(C(=O)NCCCN)CC[C@]3(C)[C@H](CC[C@@H]4[C@@]5(C)CCC(=O)C(C)(C)[C@@H]5CC[C@]43C)[C@@H]12	µM	32.1

###

Tested on: UACC-62
Assay: NCI-60 SRB screen: melanoma UACC-62
Format: cell-based, human
Conditions: UACC-62; single dose 10 µM
Tick True if Percentage Cell Growth is -80% or greater. Tick False if Percentage Cell Growth is less than -80%.

compound	answer-label
C=C(C)[C@@H]1CC[C@]2(C(N)=O)CC[C@]3(C)[C@H](CC[C@@H]4[C@@]5(C)CC[C@H](O)C(C)(C)[C@@H]5CC[C@]43C)[C@@H]12	True
CC(=O)OCC12CCC(C(C)C(N)=O)C1C1CCC3C4(C)CCC(OC(C)=O)C(C)(C)C4CCC3(C)C1(C)CC2 (stereo not drawn)	False
C=C(C)[C@@H]1CC[C@]2(C(=O)NCCCN)CC[C@]3(C)[C@H](CC[C@@H]4[C@@]5(C)CCC(=O)C(C)(C)[C@@H]5CC[C@]43C)[C@@H]12	True
C=C(C)[C@@H]1CC[C@]2(C(=O)NCCNCCNCCN)CC[C@]3(C)[C@H](CC[C@@H]4[C@@]5(C)CC[C@H](O)C(C)(C)[C@@H]5CC[C@]43C)[C@@H]12	False
C=C(C)[C@@H]1CC[C@]2(C(=O)OC)CC[C@]3(C)[C@H](CC[C@@H]4[C@@]5(C)CCC(=NOCCC(=NOCCC#N)NCCC#N)C(C)(C)[C@@H]5CC[C@]43C)[C@@H]12	True

###

Test system: COLO 205
Test: NCI-60 SRB screen: colon cancer COLO 205
Type: cell-based, human
Conditions: Homo sapiens; COLO 205; five concentrations, 48 h, SRB; read-out: GI50
Mark Criterion met for GI50 under 9 µM, Criterion not met if at or over.

compound	answer-label
C=C(C)[C@@H]1CC[C@]2(C(=O)NCCCN)CC[C@]3(C)[C@H](CC[C@@H]4[C@@]5(C)CCC(=O)C(C)(C)[C@@H]5CC[C@]43C)[C@@H]12 [Compound 10]	Criterion not met
CC(=O)OCC12CCC(C(C)C(N)=O)C1C1CCC3C4(C)CCC(OC(C)=O)C(C)(C)C4CCC3(C)C1(C)CC2 (centres unmarked) [Compound 4]	Criterion met
C=C(C)[C@@H]1CC[C@]2(C(=O)NCCNCCNCCN)CC[C@]3(C)[C@H](CC[C@@H]4[C@@]5(C)CC[C@H](O)C(C)(C)[C@@H]5CC[C@]43C)[C@@H]12 [Compound 6]	Criterion not met
